Value source: ChEMBL document CHEMBL1268934

EXPERIMENTAL_TARGET: GABA-A receptor; alpha-5/beta-3/gamma-2 (Homo sapiens, UniProt P18507+P28472+P31644)
Sequence (P18507 whole entry): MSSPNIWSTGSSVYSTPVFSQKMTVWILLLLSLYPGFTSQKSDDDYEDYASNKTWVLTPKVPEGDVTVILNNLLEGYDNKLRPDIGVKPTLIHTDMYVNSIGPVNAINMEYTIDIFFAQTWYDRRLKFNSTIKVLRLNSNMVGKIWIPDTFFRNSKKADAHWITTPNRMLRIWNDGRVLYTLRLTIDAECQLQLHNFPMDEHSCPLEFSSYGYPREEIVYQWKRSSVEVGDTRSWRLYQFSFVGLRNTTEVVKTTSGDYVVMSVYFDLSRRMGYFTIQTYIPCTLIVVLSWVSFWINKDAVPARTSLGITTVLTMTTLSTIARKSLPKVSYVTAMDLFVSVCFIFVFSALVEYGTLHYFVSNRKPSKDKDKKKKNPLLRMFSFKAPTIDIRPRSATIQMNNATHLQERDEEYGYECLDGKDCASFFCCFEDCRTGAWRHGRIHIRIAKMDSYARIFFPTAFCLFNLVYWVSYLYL
Sequence (P28472 whole entry): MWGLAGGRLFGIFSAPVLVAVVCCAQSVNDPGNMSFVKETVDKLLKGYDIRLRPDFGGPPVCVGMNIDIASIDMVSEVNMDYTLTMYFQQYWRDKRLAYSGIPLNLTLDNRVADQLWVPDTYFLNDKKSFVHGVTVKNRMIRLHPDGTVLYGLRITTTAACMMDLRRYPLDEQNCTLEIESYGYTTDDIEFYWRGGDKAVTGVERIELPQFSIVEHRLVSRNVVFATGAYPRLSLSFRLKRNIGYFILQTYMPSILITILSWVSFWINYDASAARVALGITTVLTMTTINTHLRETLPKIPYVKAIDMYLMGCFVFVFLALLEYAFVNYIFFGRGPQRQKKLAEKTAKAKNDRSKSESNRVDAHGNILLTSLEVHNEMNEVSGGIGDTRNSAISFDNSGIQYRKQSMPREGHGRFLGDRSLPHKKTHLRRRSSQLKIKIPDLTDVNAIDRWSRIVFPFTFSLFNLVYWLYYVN
Sequence (P31644 whole entry): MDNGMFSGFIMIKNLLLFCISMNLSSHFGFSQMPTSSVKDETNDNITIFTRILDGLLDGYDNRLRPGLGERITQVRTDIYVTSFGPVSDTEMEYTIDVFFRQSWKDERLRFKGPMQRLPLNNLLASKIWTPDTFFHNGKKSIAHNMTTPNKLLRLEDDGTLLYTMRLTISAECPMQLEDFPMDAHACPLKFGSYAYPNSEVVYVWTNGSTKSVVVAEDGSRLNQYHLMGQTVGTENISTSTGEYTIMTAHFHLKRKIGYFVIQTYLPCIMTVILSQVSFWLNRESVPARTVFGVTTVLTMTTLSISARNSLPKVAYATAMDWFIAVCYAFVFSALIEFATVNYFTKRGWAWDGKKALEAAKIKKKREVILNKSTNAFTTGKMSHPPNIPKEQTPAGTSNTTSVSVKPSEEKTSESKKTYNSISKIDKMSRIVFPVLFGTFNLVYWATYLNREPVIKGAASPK
ASSAY_EXPLANATION: Displacement of [3H]flunitrazepam from human recombinant GABAA alpha-5-beta-3-gamma-2 receptor expressed in HEK cells by liquid scintillation counting
pKi: −log10 of the molar value.
READOUT_KIND: pKi

COMPOUND | READOUT_KIND | RECORDED_NUMBER
C[C@H](OC(=O)c1cc2c(cn1)[nH]c1ccccc12)C(F)(F)F | pKi | 5.73
CCC(C)OC(=O)c1cc2c(cn1)[nH]c1ccccc12 (stereo not given) | pKi | 6.67
C[C@@H](OC(=O)c1cc2c(cn1)[nH]c1ccccc12)C(F)(F)F | pKi | 5.73
CC(C)(C)OC(=O)c1cc2c(cn1)[nH]c1ccc(-c3ccco3)cc12 | pKi | 6.79
O=C(OCC(F)(F)F)c1cc2c(cn1)[nH]c1ccccc12 | pKi | 6.90
CC(C)(C)OC(=O)c1cc2c(cn1)[nH]c1ccc(C#C[Si](C)(C)C)cc12 | pKi | 6.97
CC(C)(C)OC(=O)c1cc2c(cn1)[nH]c1ccc(-c3cccs3)cc12 | pKi | 5.54
O=C(OC(C(F)(F)F)C(F)(F)F)c1cc2c(cn1)[nH]c1ccccc12 | pKi | 6.34
CCOC(=O)c1cc2c(cn1)[nH]c1ccc(C#C[Si](C)(C)C)cc12 | pKi | 7.33
O=C(Oc1cc(F)c(F)cc1F)c1cc2c(cn1)[nH]c1ccccc12 | pKi | 6.37
